Ref: PubChem BioAssay (EPA / NIEHS)

# test.method.notes: APR_HepG2_MitoticArrest_72hr: Apredica 72-hour HepG2 Assay for Mitotic Arrest (AID 2282918)
# setup.conditions: high-content imaging, actives raise or lower the signal
The source made the active and inactive calls. The calls were made as follows: active = hit-call score of the fitted dose curve at least 0.9, where 1 is the maximum; inactive = score below 0.9.
Possible outcomes: active, inactive

>>> cat("O=S(=O)(O)C(F)(F)C(F)(F)C(F)(F)C(F)(F)F")
"inactive"
>>> cat("CC#Cc1cc(C)nc(Nc2ccccc2)n1")
"inactive"
>>> cat("Oc1ccc(Cl)cc1Cl")
"inactive"
>>> cat("CCSC(=O)N(CC)C1CCCCC1")
"inactive"
>>> cat("Cc1cc(-c2ccc(N)c(C)c2)ccc1N")
"inactive"
>>> cat("CN(C)c1nc(=O)n(C2CCCCC2)c(=O)n1C")
"inactive"
>>> cat("O=S(=O)(O)C(F)(F)C(F)(F)C(F)(F)C(F)(F)C(F)(F)C(F)(F)F")
"inactive"
>>> cat("Cc1ccccc1CO[C@@H]1C[C@@]2(C(C)C)CC[C@]1(C)O2")
"inactive"
>>> cat("ClC1=C(Cl)[C@]2(Cl)[C@@H]3[C@@H]4C[C@@H]([C@H]5O[C@@H]45)[C@@H]3[C@@]1(Cl)C2(Cl)Cl")
"active"
>>> cat("ClC(Cl)=C(c1ccc(Cl)cc1)c1ccc(Cl)cc1")
"active"
>>> cat("O=C(NC(=O)c1cc(F)c(F)cc1Cl)Nc1cc(F)ccc1N1CCC(C(=O)O)CC1")
"inactive"

---

# Read-out: Vascular cell adhesion molecule 1 (VCAM1), VCAM1 (gene 7412)
# test.method.notes: BSK_LPS_VCAM1: BioMAP Diversity Plus: LPS Assay for Vascular cell adhesion molecule 1 (VCAM1) Biomarker Activity (AID 2283086)
# setup.conditions: primary human HUVEC with PBMC; actives raise or lower the signal
Activity calls are given as the source filed them. How the source made its calls: active means hit-call score of the fitted dose curve at least 0.9, where 1 is the maximum; inactive means score below 0.9.
Labels: active, inactive

>>> cat("O=C(O)C(F)(F)C(F)(F)C(F)(F)C(F)(F)C(F)(F)F")
"inactive"
>>> cat("Cc1cccc(C)c1N")
"inactive"
>>> cat("Cc1ccc(O)c(C)c1")
"active"
>>> cat("CO/C=C(/C(=O)OC)c1ccccc1COc1cccc(C(F)(F)F)n1")
"active"
>>> cat("Oc1ccc(Cl)cc1Cl")
"inactive"
>>> cat("c1ccc(-c2ccccc2)cc1")
"inactive"
>>> cat("C=CC(=O)NCNC(=O)C=C")
"inactive"
>>> cat("O=NN(c1ccccc1)c1ccccc1")
"inactive"
>>> cat("Sc1ccccc1")
"inactive"
>>> cat("Cc1ccccc1O")
"inactive"
>>> cat("CN(C)CCO")
"inactive"
>>> cat("CC#Cc1cc(C)nc(Nc2ccccc2)n1")
"inactive"
>>> cat("CCOP(=S)(OCC)SCSC(C)(C)C")
"inactive"
>>> cat("Cc1cc(O)ccc1Cl")
"inactive"
>>> cat("Cc1cccc([N+](=O)[O-])c1")
"inactive"
>>> cat("c1cc2ccc3cccc4ccc(c1)c2c34")
"inactive"
>>> cat("CCCCCCOC(=O)c1ccccc1C(=O)OCCCCCC")
"active"
>>> cat("CCCCCCCCCc1ccc(O)cc1")
"active"
>>> cat("COS(=O)(=O)OC")
"inactive"
>>> cat("O=S(=O)(O)C(F)(F)C(F)(F)C(F)(F)C(F)(F)C(F)(F)C(F)(F)F")
"inactive"
>>> cat("C[C@]12CCC(=O)C=C1CC[C@@H]1[C@@H]2CC[C@]2(C)C(=O)CC[C@@H]12")
"inactive"
>>> cat("O=C(NC(=O)c1c(F)cccc1F)Nc1cc(Cl)c(OC(F)(F)C(F)F)c(Cl)c1")
"inactive"
>>> cat("O=C(N[C@H]1CN2CCC1CC2)c1cc2ccoc2cn1")
"inactive"
>>> cat("CCC(C)(c1ccc(O)cc1)c1ccc(O)cc1")
"active"
>>> cat("CCC(C)(CC)c1cc(NC(=O)c2c(OC)cccc2OC)on1")
"inactive"
>>> cat("COc1ccc(O)c(C(C)(C)C)c1")
"inactive"
>>> cat("CCSC(=O)N(CC)C1CCCCC1")
"inactive"
>>> cat("C[C@]12CCC(=O)C=C1CC[C@@H]1[C@@H]2CC[C@@]2(C)[C@H]1CC[C@]2(C)O")
"inactive"
>>> cat("N#Cc1ccc(N(CC(N)=O)CC(F)(F)F)cc1C(F)(F)F")
"inactive"
>>> cat("Cc1ccccc1CO[C@@H]1C[C@@]2(C(C)C)CC[C@]1(C)O2")
"inactive"
>>> cat("CN(C)c1nc(=O)n(C2CCCCC2)c(=O)n1C")
"inactive"
>>> cat("ClC(Cl)=C(c1ccc(Cl)cc1)c1ccc(Cl)cc1")
"active"
>>> cat("Cc1ccccc1[N+](=O)[O-]")
"inactive"
>>> cat("Clc1ccc(C(c2ccccc2Cl)C(Cl)(Cl)Cl)cc1 (stereo not given)")
"active"
>>> cat("CC(c1ccc(O)cc1)(c1ccc(O)cc1)c1ccc(O)cc1")
"active"
